Target: T1, soluble CD73 dimer (human, UniProt P21589 27-549, limits assumed)
T1 construct: CD73 in the flow (SPR) or in solution (BLI binning); also called soluble human CD73
T1 sequence: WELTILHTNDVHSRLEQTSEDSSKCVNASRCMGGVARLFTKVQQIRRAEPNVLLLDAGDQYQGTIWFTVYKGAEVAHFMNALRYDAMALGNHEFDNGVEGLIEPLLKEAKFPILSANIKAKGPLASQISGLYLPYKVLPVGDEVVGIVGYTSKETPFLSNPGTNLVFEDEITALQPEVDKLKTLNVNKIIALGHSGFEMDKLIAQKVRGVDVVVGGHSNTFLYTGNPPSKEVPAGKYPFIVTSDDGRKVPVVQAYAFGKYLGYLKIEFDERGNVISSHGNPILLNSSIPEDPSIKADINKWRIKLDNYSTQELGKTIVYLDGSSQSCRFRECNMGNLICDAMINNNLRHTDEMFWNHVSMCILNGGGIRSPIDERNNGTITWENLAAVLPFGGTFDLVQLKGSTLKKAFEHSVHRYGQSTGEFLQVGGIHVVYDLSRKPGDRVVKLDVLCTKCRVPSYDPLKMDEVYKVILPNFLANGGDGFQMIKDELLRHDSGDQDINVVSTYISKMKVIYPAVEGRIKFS
Assay: SPR, antibody captured on Protein A chip, CD73 in flow; Langmuir ka with major component kd
Provide the recorded Kd for the entries that follow.
Lab book: enter the figure in nM, no units written.

Ask | Name the recorded Kd for CL25/TB19 (bispecific antibody, part only; not given: CL25 arm; constant regions, V domains shown, part only) VH: QEQLQESGPGLVKPSETLSLTCTVSGGSIRNNYYNWIRQPAGKGLEWIGRIYISGTTNSNPSLKSRVTMSIDTSKNQFSLKLSSVTAADTAIYYCAREHYVSGTSLDNWGQGTLVTVSS VL: EIVMTQSPTTLSLSPGERATLSCRASQSVNTNYFSWYQQKPGLTPRLLIYGTSTRATGIPARFSGSGSGTDFTLTISSLQPEDFGIYYCQQDYNLPYTFGQGTYLEIK .
Reply | 0.16

Ask | For E3.2/TB19 (bispecific antibody, part only; not given: E3.2 arm; constant regions, V domains shown, part only) VH: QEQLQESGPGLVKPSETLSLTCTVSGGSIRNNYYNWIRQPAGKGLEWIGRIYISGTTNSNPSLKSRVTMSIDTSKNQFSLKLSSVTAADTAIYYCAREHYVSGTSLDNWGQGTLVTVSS VL: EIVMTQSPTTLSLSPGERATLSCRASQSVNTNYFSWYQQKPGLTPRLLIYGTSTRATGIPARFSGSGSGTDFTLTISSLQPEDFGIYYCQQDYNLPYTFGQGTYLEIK then?
Reply | 0.352

Ask | Repeat for the following binder: TB19/H7 (bispecific antibody, part only; not given: H7 arm; constant regions, V domains shown, part only) VH: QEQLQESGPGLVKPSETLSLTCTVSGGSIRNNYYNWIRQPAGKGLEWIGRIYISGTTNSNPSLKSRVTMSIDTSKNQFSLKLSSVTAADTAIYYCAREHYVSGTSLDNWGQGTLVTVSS VL: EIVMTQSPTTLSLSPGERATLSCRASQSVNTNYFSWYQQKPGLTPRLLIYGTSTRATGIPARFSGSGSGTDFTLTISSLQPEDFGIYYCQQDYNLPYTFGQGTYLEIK
Reply | 0.328
